SUBJECT OF TEST: T1, αvβ5 integrin on transfected K562 cells (UniProt P06756 31-1048; P18084 24-799, limits assumed)
T1 construct: whole, on cells
PROTOCOL TEXT: flow cytometry on K562 cells transfected with αvβ5
READOUT NAME: binding result

[[record]]
binder = "scVEGFrgd-7P (designed binder, Soluble protein from P. pastoris with C-terminal hexahistidine tag, with or without N-terminal FLAG tag; also called scVEGF-7P) EVVKAMDVYQRSYCHPIETLVDIFQEYPDEIEYIFKPSCVPLMRCGGCCNDAGLECVPTEESNITMQIMRIKPHQGQHIGEMSFLQHNKCECRPKKDGSTSGSGKSSEGKGEVVKFMDVYQRSYCHPIETLVDIFQEYPDEIEYAFKPSCVPLMRCGGCCNDEGLECVPTEESNITMQIMRPASRGDSPPHIGEMSFLQHNKCECRPKKDTR"
readout_name = "binding result"
assay_result = "no binding"

[[record]]
binder = "scVEGFrgd-7H (designed binder, Soluble protein from P. pastoris with C-terminal hexahistidine tag, with or without N-terminal FLAG tag; also called scVEGF-7H) EVVKAMDVYQRSYCHPIETLVDIFQEYPDEIEYIFKPSCVPLMRCGGCCNDAGLECVPTEESNITMQIMRIKPHQGQHIGEMSFLQHNKCECRPKKDGSTSGSGKSSEGKGEVVKFMDVYQRSYCHPIETLVDIFQEYPDEIEYAFKPSCVPLMRCGGCCNDEGLECVPTEESNITMQIMRPGGRGDSAYHIGEMSFLQHNKCECRPKKDTR"
readout_name = "binding result"
assay_result = "no binding"

[[record]]
binder = "scVEGF-mE (designed binder, Soluble protein with C-terminal hexahistidine tag, with or without N-terminal FLAG tag (tags not included in the parts); also called scVEGFmut-E) EVVKAMDVYQRSYCHPIETLVDILQEYPDEIGYIFKPSCVPLMRCGGCCNGAGLECVPTEESNITMQIMRIKPHRGQHIGEMSFLQHNKCECRPKKDGSTSGSGKSSEGKGEVVRFMDVYQRSYCHPIETLVDIFQEYPNEIEYAFKPSCVPLMRCGGCCNNEGLECVPTEESNITMQIMRAKPHQGQHIGEMSFLQHNKCECRPKKD"
readout_name = "binding result"
assay_result = "no binding"

